assay.system: full length hCDK2/E (Homo sapiens, UniProt P24941)
method.summary: γ-33P ATP filter binding assay, hCDK2/E
cond: CDK2/E IC50, ATP (Km) 65 μM, Table 5
endpoint.label: pIC50
Kindly note that pIC50 refers to -log10 of the concentration in mol/L and answer with the value alone.

Example entries and their recorded answers appear below.
compound="COC(=O)c1ccccc1NC(=O)c1cc2c(=O)[nH]c3ccccc3c2s1 [Compound 25r]" endpoint_label=pIC50 readout_number=4.59
compound="COC(=O)c1cccc(NC(=O)c2cc3c(=O)[nH]c4ccccc4c3s2)c1 [Compound 25t]" endpoint_label=pIC50 readout_number=5.20

Quick one: pIC50 of O=C(Nc1ccccn1)c1cc2c(=O)[nH]c3ccccc3c2s1 [Compound 25v] ?
5.00

====

pIC50 by entry:
assay.system: full length hCDK5/p25 (Homo sapiens)
Sequence (Q00535 whole entry): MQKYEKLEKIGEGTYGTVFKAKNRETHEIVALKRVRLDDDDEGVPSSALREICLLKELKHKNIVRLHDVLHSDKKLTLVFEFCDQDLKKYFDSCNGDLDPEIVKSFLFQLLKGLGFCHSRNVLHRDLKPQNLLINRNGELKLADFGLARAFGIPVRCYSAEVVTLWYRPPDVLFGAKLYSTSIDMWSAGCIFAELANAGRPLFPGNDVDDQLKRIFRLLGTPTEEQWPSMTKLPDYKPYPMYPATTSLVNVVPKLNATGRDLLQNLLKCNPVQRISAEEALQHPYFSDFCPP
Sequence (Q15078 99-307 partner limits assumed): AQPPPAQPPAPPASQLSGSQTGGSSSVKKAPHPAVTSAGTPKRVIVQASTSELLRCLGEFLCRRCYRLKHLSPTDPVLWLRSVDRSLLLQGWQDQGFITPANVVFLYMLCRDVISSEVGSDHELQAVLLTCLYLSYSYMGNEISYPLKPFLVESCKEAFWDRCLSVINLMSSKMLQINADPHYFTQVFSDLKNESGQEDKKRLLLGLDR
method.summary: γ-33P ATP filter binding assay, hCDK5/p25
Assay type: biochemical
cond: CDK5/p25 IC50, ATP (Km) 30 μM, Table 5
Kindly note that pIC50 refers to -log10 of the concentration in mol/L and answer with the value alone.

Example entries and their recorded answers appear below.
compound="COC(=O)c1ccccc1NC(=O)c1cc2c(=O)[nH]c3ccccc3c2s1 [Compound 25r]" endpoint_label=pIC50 readout_number=5.52
compound="COC(=O)c1cc2c(=O)[nH]c3ccccc3c2s1 [Compound 24]" endpoint_label=pIC50 readout_number=4.24
compound="O=C(Nc1ccccc1C(=O)O)c1cc2c(=O)[nH]c3ccccc3c2s1 [Compound 25s]" endpoint_label=pIC50 readout_number=5.37
compound="O=C(Nc1ccccn1)c1cc2c(Cl)nc3ccccc3c2s1 [Compound 25w]" endpoint_label=pIC50 readout_number=5.42
compound="O=C(Nc1cccnc1)c1cc2c(=O)[nH]c3ccccc3c2s1 [Compound 25x]" endpoint_label=pIC50 readout_number=4.97

Query the reported pIC50 for full length hCDK5/p25 (Homo sapiens); item: O=C(Nc1ccccn1)c1cc2c(=O)[nH]c3ccccc3c2s1 [Compound 25v]
5.37

Query the reported pIC50 for full length hCDK5/p25 (Homo sapiens); item: COC(=O)c1cccc(NC(=O)c2cc3c(=O)[nH]c4ccccc4c3s2)c1 [Compound 25t]
5.80

====

assay.system: full length hCDK2/E (Homo sapiens)
method.summary: γ-33P ATP filter binding assay, hCDK2/E
cond: read-out: CDK2/E % inhibition @ 50 μM, 50 μM compound, 10 μM ATP
endpoint.label: inhibition at 50 µM (%)
// note: answer is a bare numeric in %

Example entries and their recorded answers appear below.
compound="COc1ccc(NC(=N)Nc2nc(O)cc(CSc3ccc(Cl)cc3)n2)cc1 [Compound 6]" u=% readout_number=32.3
compound="COc1ccc(Cn2c(SCC(=O)Nc3cc(C)n[nH]3)nc3nccnc3c2=O)cc1 [Compound 9]" u=% readout_number=38.7
compound="O=C(O)c1cc2c(=O)[nH]c3ccccc3c2s1 [Compound 14]" u=% readout_number=23.5

Quick one: inhibition at 50 µM of Cc1ccc(NC(=O)c2cc3c(=O)[nH]c4ccccc4c3s2)nc1 [Compound 10] ?
77

Quick one: inhibition at 50 µM of COc1ccc(Nc2nc(NCCO)nc3nccnc23)cc1 [Compound 12] ?
58.2

Quick one: inhibition at 50 µM of Cc1ccc(NC(=O)CSc2nnc(NC(=O)CCc3ccccc3)s2)cc1 [Compound 7] ?
29.9

Values compiled from paper PMC4254530.
